- ASSAY SYSTEM: Cholinesterase (Homo sapiens)
- Sequence (P06276 whole entry): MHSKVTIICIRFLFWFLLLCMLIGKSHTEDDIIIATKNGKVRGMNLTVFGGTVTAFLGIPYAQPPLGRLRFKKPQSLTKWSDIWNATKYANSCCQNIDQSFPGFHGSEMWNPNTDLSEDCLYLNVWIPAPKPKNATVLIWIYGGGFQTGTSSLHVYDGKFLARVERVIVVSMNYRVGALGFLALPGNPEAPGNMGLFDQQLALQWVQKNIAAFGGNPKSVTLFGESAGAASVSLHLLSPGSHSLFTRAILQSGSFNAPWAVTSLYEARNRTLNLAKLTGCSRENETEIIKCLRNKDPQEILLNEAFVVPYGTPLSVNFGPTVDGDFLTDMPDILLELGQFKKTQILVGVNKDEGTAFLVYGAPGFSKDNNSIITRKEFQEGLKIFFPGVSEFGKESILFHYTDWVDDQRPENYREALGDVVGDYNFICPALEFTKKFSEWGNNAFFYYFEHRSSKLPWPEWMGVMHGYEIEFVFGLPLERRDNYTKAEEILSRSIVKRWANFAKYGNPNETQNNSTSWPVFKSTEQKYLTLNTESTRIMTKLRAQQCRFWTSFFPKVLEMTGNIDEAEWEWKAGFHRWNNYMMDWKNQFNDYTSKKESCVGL
pIC50: −log10 of the molar value.
Mark Criterion met for reported pIC50 of 4 or greater; mark Criterion not met for anything smaller.

Could you verify whether the entry CN(Cc1ccccc1)Cc1ccc(C(=O)c2ccc(OCCCCCCCN3CCCCC3)cc2)cc1 shows pIC50 of no less than 4?
Criterion met

Could you verify whether the entry CN(Cc1ccccc1)Cc1ccc(C(=O)c2ccc(NC(=O)CN3CCOCC3)cc2)cc1 shows pIC50 of no less than 4?
Criterion not met

Could you verify whether the entry CN(Cc1ccccc1)Cc1ccc(C(=O)c2ccc(OCCCN3CCC(n4c(=O)[nH]c5ccccc54)CC3)cc2)cc1 shows pIC50 of no less than 4?
Criterion met

Could you verify whether the entry CN(Cc1ccccc1)Cc1ccc(C(=O)c2ccc(NC(=O)CCCCN3CCCCC3)cc2)cc1 shows pIC50 of no less than 4?
Criterion met

Could you verify whether the entry CCN(CC)CCCCCCCOc1ccc(C(=O)c2ccc(CN(C)Cc3ccccc3)cc2)cc1 shows pIC50 of no less than 4?
Criterion met

Could you verify whether the entry CCN(CC)CCCOc1ccc(C(=O)c2ccc(CN(C)Cc3ccccc3)cc2)cc1 shows pIC50 of no less than 4?
Criterion met

Could you verify whether the entry CN(Cc1ccccc1)Cc1ccc(C(=O)c2ccc(OCCCN3CCCCC3)cc2)cc1 shows pIC50 of no less than 4?
Criterion met

Could you verify whether the entry CCN(CC)CCCCCCOc1ccc(C(=O)c2ccc(CN(C)Cc3ccccc3)cc2)cc1 shows pIC50 of no less than 4?
Criterion met

Could you verify whether the entry CN(Cc1ccccc1)Cc1ccc(C(=O)c2ccc(OCCCCCN3CCCCC3)cc2)cc1 shows pIC50 of no less than 4?
Criterion met

Could you verify whether the entry CN(Cc1ccccc1)Cc1ccc(C(=O)c2ccc(OCCCN3CCOCC3)cc2)cc1 shows pIC50 of no less than 4?
Criterion met

Could you verify whether the entry CCN(CC)CC(=O)Nc1ccc(C(=O)c2ccc(CN(C)Cc3ccccc3)cc2)cc1 shows pIC50 of no less than 4?
Criterion not met

Could you verify whether the entry CN(Cc1ccccc1)Cc1ccc(C(=O)c2ccc(NC(=O)CN3CCCCC3)cc2)cc1 shows pIC50 of no less than 4?
Criterion not met

Could you verify whether the entry CCN(CC)CCCCCOc1ccc(C(=O)c2ccc(CN(C)Cc3ccccc3)cc2)cc1 shows pIC50 of no less than 4?
Criterion met

Could you verify whether the entry CN(Cc1ccccc1)Cc1ccc(C(=O)c2ccc(OCCCCCCN3CCCCC3)cc2)cc1 shows pIC50 of no less than 4?
Criterion met

Could you verify whether the entry CCN(CC)CCc1ccc(Oc2ccc(C(=O)c3ccc(CN(C)Cc4ccccc4)cc3)cc2)cc1 shows pIC50 of no less than 4?
Criterion not met
